# System: NCI-H522 lung
# testDescription: NCI-60 one-dose screen, 48 h
# conditionsUsed: 10 µM unless noted
This is part of a sample that, as a whole, favours compounds with a hit. Of some 83,000 tested, about 20% had one in any assay. Active and inactive are the calls of the source. How the source made its calls: active means growth percent below 10; inactive means the rest.
Outcome codes: active, inactive

1) CCNC(=O)Nc1ncccc1OCc1ccc(F)cc1 : inactive
2) COc1ccc(-c2ccc(-c3ccc(C(=N)N)cn3)s2)cc1Cl : active
3) N#C/C(=C\c1ccc(Br)cc1)n1nnc2c(F)cccc21 : active
4) Cc1ccc(-c2nc(SCC(=O)c3ccc(C#N)cc3)[nH]c(=O)c2C#N)cc1 : inactive
5) COc1ccc(Oc2nc(Nc3ccc(N4CCOCC4)cc3)ncc2NC(=O)c2cc(OC)cc(OC)c2)cc1 : inactive
6) C=C[C@]1(C)C=C2CC[C@@H]3C(C)(C)C(=O)CC[C@@]3(C)[C@@H]2CC1 : inactive
7) Clc1cccc(Nc2ncnc3ccc(-c4cncc(-n5cnnn5)c4)cc23)c1 : inactive
8) CCN1CCN(CC(=O)Nc2nc3ccc(NCc4ccc(C)cc4)cc3s2)CC1 : inactive
9) CCn1cc(C(=O)NN=C2CCCC2)c(=O)c2ccc(C)nc21 : inactive
10) O=C(Oc1ccc(CO[N+](=O)[O-])cc1)c1ccccc1 : active

---

# Test system: SF-268 CNS
# testDescription: NCI-60 one-dose screen, 48 h (100 = growth as untreated, 0 = no growth, -100 = all killed)
# conditionsUsed: 10 µM
This is part of a sample that, as a whole, favours compounds with a hit. Of some 83,000 tested, about 20% had one in any assay.
readoutLabel: growth (%)

1) CC(=O)/C=C/c1ccc(N(C)Cc2ccc(C(C)(C)C)cc2)cc1 : 102
2) CC(=O)/C=C/c1ccc(N(CCO)Cc2ccc(C(C)(C)C)cc2)cc1 : 78.9
3) CC(=O)/C=C/c1ccc(OCc2ccc(C(C)(C)C)cc2)cc1 : 94.2
4) O=C(/C=C/c1cccc(Oc2ccc(Cl)cc2)c1)c1ccccc1 : 101

---

# Tested on: SK-MEL-2 melanoma
# testDescription: NCI-60 one-dose screen, 48 h
# conditionsUsed: 10 µM unless noted
Compounds without any hit were thinned out: in the full panel of roughly 83,000, 20% have a hit. Calls of active or inactive are those of the source. Rule for the calls: active = growth percent below 10; inactive = the rest.
Classes used: active, inactive

1. COc1cc(-c2nc(SCCC(C)C)nc(Nc3ccc(F)cc3)c2C#N)cc(OC)c1OC : inactive
2. CN(C)CCCn1c2nc(=O)[nH]c(=O)c-2nc2cc(Cl)c(Cl)cc21 : inactive
3. O=C(CN1C(=O)S/C(=C\C(Cl)=C\c2ccccc2)C1=O)NC1C=CS(=O)(=O)C1 (centres undefined) : active
4. CN1CCN(CCNC(=O)c2cccc(CN3c4cccc5c4C(=Cc4cccnc43)N(C)C5=O)c2)CC1 : inactive
5. CN1CCN(Cc2ccc(NC(=O)c3nc4ccc5[nH]ncc5c4c4c3CCCC4)cc2C(F)(F)F)CC1 : active
6. CCOC(=O)CCCn1c(-c2ccccc2)cc(-c2ccccc2)c(C#N)c1=O : inactive
7. O=C1/C(=C/c2cn(-c3ccccc3)nc2-c2ccccc2)SC(=S)N1c1ccc(Cl)cc1 : inactive
8. C[C@@H]1CC[C@@H]2[C@@H]1[C@H](OC(=O)/C=C/c1ccccc1)[C@]1(c3ccccc3)C[C@@H](NC(=O)CO)[C@@]2(C)O1 : inactive
9. COc1ccc(/C(C)=C(\c2ccc(OCCN3CCOCC3)cc2)c2ccc(OC(=O)C3CCCCC3)cc2)cc1 : inactive
